System: Plasma
Test: Effect on auto-carbonylation of human plasma protein at 0.1 to 100 uM
Type: ADME, cell-free
Details: dose 0.1-100 µM
measurement.label: Activity

>>> endpoint_result("O=C1CCc2ccc(O)c(c2)-c2cc(ccc2O)C[C@H](O)[C@@H](O)[C@@H]1O")
"Non-Toxic"
>>> endpoint_result("COc1c2cc(c(OC)c1O)Oc1ccc(cc1)CC[C@@H](O)/C=C/C=C\\2")
"Non-Toxic"
>>> endpoint_result("COc1c2cc(c(OC)c1O)Oc1ccc(cc1)CCCC[C@@H](O)/C=C\\2")
"Non-Toxic"

---

Test system: Plasma
Test: Effect on autoxidation of thiol group in human plasma protein at 0.1 to 100 uM by Ellman reagent based spectrophotometry
Assay type: ADME, cell-free
Conditions: dose 0.1-100 µM
measurement.label: Activity

# annotated cases, reported Activity shown
>>> endpoint_result("O=C1/C=C/CCc2ccc(O)c(c2)-c2cc(ccc2O)CC1")
"Non-Toxic"
>>> endpoint_result("O=C1CCc2ccc(O)c(c2)-c2cc(ccc2O)C[C@H](O)C[C@H]1O")
"Non-Toxic"
>>> endpoint_result("COc1c2cc(c(OC)c1O)Oc1ccc(cc1)CC[C@@H](O)/C=C/C=C\\2")
"Non-Toxic"
>>> endpoint_result("COc1c2cc(c(OC)c1O)Oc1ccc(cc1)[C@@H](O)C[C@H](O)/C=C/C=C/2")
"Non-Toxic"
>>> endpoint_result("COc1c2cc(c(OC)c1O)Oc1ccc(cc1)CCCC[C@@H](O)/C=C\\2")
"Non-Toxic"

Would you mind telling me what Activity value was observed for COc1c2cc(c(OC)c1O)Oc1ccc(cc1)CCC(=O)CC/C=C\2 ?
Non-Toxic

Would you mind telling me what Activity value was observed for COc1c(O)cc2cc1Oc1ccc(cc1)CC[C@@H](O)/C=C/C=C\2 ?
Non-Toxic

Would you mind telling me what Activity value was observed for O=C1CCc2ccc(O)c(c2)-c2cc(ccc2O)C[C@H](O)[C@@H](O)[C@@H]1O ?
Non-Toxic

// provenance: ChEMBL document CHEMBL4808164
